- System: SK-MEL-2 melanoma
- method summary: NCI tumour cell line growth inhibition, 48 h; in the data active means GI50 below about 0.43 µM; inactive means the rest
Log the outcome using a class from class 1 (active), class 0 (inactive)

See these solved cases before continuing.
>  <molecule>
CC1=C(C(=O)Nc2ccc(Cl)c(Cl)c2)C(c2cccc(Cl)c2)NC(=S)N1 (centres undefined)

>  <class label>
class 0

$$$$
>  <molecule>
O=C1C(=C([O-])c2ccccc2)C(=O)c2ccccc21.O=C1C(=C([O-])c2ccccc2)C(=O)c2ccccc21.[Ni+2]

>  <class label>
class 0

$$$$
>  <molecule>
Oc1[nH]c2ccccc2c1C=Nc1ccc(-n2cncn2)cc1

>  <class label>
class 0

$$$$

[ask] What is the recorded call for this molecule in the test? O=C(Oc1c(Cl)cc(Cl)cc1Cl)c1ccccc1Nc1ccnc(C(F)(F)F)c1
[reply] class 0

[ask] Entry COc1cc(C(=O)O[C@H](C(=O)NCCCCNC(=O)[C@@H](OC(=O)c2cc(OC)cc3c(C)cccc23)[C@]2(C)CO2)[C@]2(C)CO2)c2cccc(C)c2c1 : call = ?
[reply] class 1

[ask] Please indicate how the test categorized N#Cc1c(N)nc(N2CCOCC2)c(C#N)c1-c1c(Cl)cccc1Cl .
[reply] class 0

[ask] What was the test verdict on O=C(C(=CN1CCN(C(=O)c2ccco2)C1=S)C(=O)c1ccccc1)c1ccccc1 ?
[reply] class 0

[ask] Fill in: this test's call for Cn1c(I)c(C#C[Si](C)(C)C)c(=O)[nH]c1=O is ___
[reply] class 0

[ask] State the result this test recorded for CCOC(=O)/C=C1/SC(=Nc2ccc(C#N)cc2)N(Cc2ccco2)C1=O .
[reply] class 0
